Values compiled from patent US20230233569A1.

molecular target: KRAS G12V (Homo sapiens, UniProt P01116+P62937, G12V); assay: Ras-Raf disruption / FRET / MOA assay (BRAF RBD); type: biochemical; details: KRAS G12V FRET data IC50, Ras-Raf disruption, with Cyclophilin A
Sequence (P01116 1-169 isoform P01116-2 G12V limits assumed): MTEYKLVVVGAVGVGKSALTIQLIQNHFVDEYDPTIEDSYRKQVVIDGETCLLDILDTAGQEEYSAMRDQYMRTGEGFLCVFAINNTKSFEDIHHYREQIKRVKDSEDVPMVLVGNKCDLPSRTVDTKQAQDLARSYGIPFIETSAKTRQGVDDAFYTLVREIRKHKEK
Sequence (P62937 whole entry): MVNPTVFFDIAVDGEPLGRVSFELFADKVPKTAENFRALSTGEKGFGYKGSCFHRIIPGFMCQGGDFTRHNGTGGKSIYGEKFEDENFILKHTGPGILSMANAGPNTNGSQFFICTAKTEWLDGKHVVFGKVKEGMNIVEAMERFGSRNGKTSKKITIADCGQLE
Please provide measured IC50 for the entries that follow.

Q: // map CCn1c(-c2cc(N3CCN(C)CC3)cnc2[C@H](C)OC)c2c3cc(ccc31)-c1cc(O)cc(c1)C[C@H](NC(=O)[C@H](C1CCCC1)N(C)C(=O)CN(C)C(=O)[C@@H]1N[C@@H]1C1CC1)C(=O)N1CCC[C@H](N1)C(=O)OCC(C)(C)C2 to recorded IC50 (system: KRAS G12V (Homo sapiens, UniProt P01116+P62937, G12V))
Result: < 0.01 µM

Q: What do you have for CCn1c(-c2cccnc2[C@H](C)OC)c2c3cc(ccc31)-c1cc(O)cc(c1)C[C@H](NC(=O)[C@H](C(C)C)N(C)C(=O)[C@H]1CC[C@@H](C)N1C(=O)[C@@H]1CN1)C(=O)N1CCC[C@H](N1)C(=O)OCC(C)(C)C2 ?
Result: 0.1 to 1 µM
